Source listed as PubChem BioAssay (NCI).

System: IGROV1 ovarian
Assay: NCI-60 one-dose screen, 48 h
Details: 10 µM unless noted
About 83,000 compounds went through this panel and 20% of them were active in at least one assay; those are over-represented in the sample as a whole. Calls of active or inactive are those of the source. Rule for the calls: active = growth percent below 10; inactive = the rest.
Please answer using one outcome listed in 1 (yes) for active, 0 (no) for inactive

Exercise: Check the results log: what was the call for Cc1nc(Nc2cccnc2)sc1C(=O)/C=C/c1ccc(F)cc1 ?
Solution: 0 (no)

Exercise: Check the results log: what was the call for O=C(NCCCN1CCN(CCCNC(=O)C2CCCCC2)CC1)C1CCCCC1 ?
Solution: 0 (no)

Exercise: Check the results log: what was the call for N=C(N)c1ccc(-c2ccc(-c3ccc(Cl)cc3)o2)nc1 ?
Solution: 1 (yes)

Exercise: Check the results log: what was the call for COc1ccc(OC)c(/C=C2\Oc3cc(OCCN4CCCC4)ccc3C2=O)c1 ?
Solution: 0 (no)

Exercise: Check the results log: what was the call for COC(=O)c1ccc2nc(-c3cc4ccccc4n3C)n(CCCCOc3cc4c(cc3OC)C(=O)N3CCC[C@H]3C=N4)c2c1 ?
Solution: 1 (yes)

Exercise: Check the results log: what was the call for COc1cccc2cc(-c3cc4ccccc4[nH]3)/c(=N/C(=S)Nc3ccccc3)oc12 ?
Solution: 0 (no)

----------
Tested on: MALME-3M melanoma
Test: NCI-60 one-dose screen, 48 h (100 = growth as untreated, 0 = no growth, -100 = all killed)
Settings: 10 µM unless noted
About 83,000 compounds went through this panel and 20% of them were active in at least one assay; those are over-represented in the sample as a whole. Activity calls are given as the source filed them. Rule for the calls: active = growth percent below 10; inactive = the rest.
# key: entry, value: growth

Use these answered entries as a reference point.
- COC(=O)CCCCN=Cc1c(O)c(O)c(C(C)C)c2cc(C)c(-c3c(C)cc4c(C(C)C)c(O)c(O)c(C=NCCCCC(=O)OC)c4c3O)c(O)c12: 42.5% (inactive)
- O=C1CCC(=O)N1Cc1ccccc1: 110% (inactive)
- Cc1cc2c(c(=O)o1)C(c1ccc(OC(=O)N3CCOCC3)cc1)C(C#N)=C(N)O2 (stereo not given): 126% (inactive)
- O=C1c2ccccc2C(=O)c2c1oc1oc3c(c(=O)c21)c(=O)n(-c1ccccc1)c1ccccc31: 42% (inactive)

Next up:
Reported growth ( CCn1cc(C(=O)O)c(=O)c2cc(F)c(N3CCN(S(=O)(=O)c4ccc(Cl)cc4Cl)CC3)cc21 ) = -19.8% (active)

----------
# key: entry, value: growth
System: ACHN renal
Assay: NCI-60 one-dose screen, 48 h (100 = growth as untreated, 0 = no growth, -100 = all killed)
Conditions: 10 µM unless noted
This is part of a sample that, as a whole, favours compounds with a hit. Of some 83,000 tested, about 20% had one in any assay.
Only the number, expressed in %, is required.

Use these answered entries as a reference point.
- Cc1ccc(S(=O)(=O)OCC(=O)Nc2ccc(C(=O)O)c(O)c2)cc1: 102
- N#Cc1c(NC(=O)c2ccc([N+](=O)[O-])o2)[n+]([O-])c2cc(F)c(F)cc2[n+]1[O-]: 109
- CC(=O)Nc1ccc2c(c1)/C(=C\C=C/c1ccc([N+](C)(C)C)cc1)c1ccccc1-2: 73.2
- O=S(=O)(NCCCNc1cc(-c2cn(-c3ccccc3)nc2-c2cccc(O)c2)ccn1)c1ccc(Br)cc1: 10.2
- COC1=CC(c2ccc[nH]2)=N/C1=C\c1[nH]c(C)c(CCCn2cc(CCCCCCCCC[C@@H]3Cc4cc(O)ccc4C4CC[C@]5(C)[C@@H](O)CC[C@H]5C43)nn2)c1C (some centres undefined): 40.8
- CCCCCCCCCCn1cc[n+](C)c1: 45
- Cc1cc(NC(=O)COC(=O)c2sc3cc(F)ccc3c2Cl)no1: 106
- CC1Cc2c(N(C)C)ncnc2N(C)c2ccc(Cl)cc21 (centres undefined): 47.1

Next up:
Reported growth ( COc1ccc(-c2cn[nH]c2-c2cc(OC)c3c(c2)OCO3)cc1 ) = 39.5

----------
System: MDA-MB-231 breast
Test: NCI-60 one-dose screen, 48 h (100 = growth as untreated, 0 = no growth, -100 = all killed)
Conditions: 10 µM unless noted
About 83,000 compounds went through this panel and 20% of them were active in at least one assay; those are over-represented in the sample as a whole.
# key: entry, value: growth
Only the number, expressed in %, is required.

Use these answered entries as a reference point.
• CC(C)[C@H](CO)Nc1nc(Nc2ccc(C(=O)NCCNS(=O)(=O)c3cccc4c(N(C)C)cccc34)c(Cl)c2)c2ncn(C(C)C)c2n1 = 7.36
• Cc1cc2c(c(=O)o1)C(c1ccc(OC(=O)N3CCOCC3)cc1)C(C#N)=C(N)O2 (stereo unspecified) = 116
• COc1cc(NCCN=C(N)NC(N)=NC(C)C)c2ncccc2c1 = 69.3

Reported growth ( Cc1cc(Nc2nc(-c3ccncc3)nc3ccccc23)n[nH]1 ) = 84.1

Reported growth ( COc1ccc(/C=C(\C#N)c2ccc([N+](=O)[O-])cc2)c2ccccc12 ) = 45

Reported growth ( COc1ccc2c(c1)C(C)Cc1c(N(C)C)ncnc1N2C (stereo unspecified) ) = 54.3

Reported growth ( O=c1[nH]c2ccccc2cc1-c1nnc(Cc2ccccc2)o1 ) = 79.6

Reported growth ( COc1cc(-c2nc(-c3nc4ccccc4[nH]3)cc3c2[nH]c2ccccc23)cc(OC)c1OC ) = 61.3

----------
Tested on: NCI-H23 lung
Test: NCI-60 one-dose screen, 48 h
Details: 10 µM unless noted
Compounds without any hit were thinned out: in the full panel of roughly 83,000, 20% have a hit. The source made the active and inactive calls. How the source made its calls: active means growth percent below 10; inactive means the rest.
Please answer using one outcome listed in active, inactive

- O=S(=O)(NCCCNc1nccc(-c2c(-c3ccc(O)cc3)nc3sccn23)n1)c1ccc(F)cc1: active

Exercise: Check the results log: what was the call for CCCCC(N)(C(=O)O)C1CCCC1 (centres undefined) ?
Solution: inactive

Exercise: Check the results log: what was the call for COC1=CC(c2ccc[nH]2)=N/C1=C\c1[nH]c(C)c(C(=O)CCCCC(=O)Oc2ccc3c(c2)CCC2C3CC[C@]3(C)[C@@H](O)CC[C@@H]23)c1C (some centres undefined) ?
Solution: inactive

Exercise: Check the results log: what was the call for N=C(N)c1ccc(-c2ccc(-c3ccc(Cl)cc3)o2)nc1 ?
Solution: active

----------
Tested on: T-47D breast
Experiment: NCI-60 one-dose screen, 48 h (100 = growth as untreated, 0 = no growth, -100 = all killed)
Conditions: 10 µM unless noted
This is part of a sample that, as a whole, favours compounds with a hit. Of some 83,000 tested, about 20% had one in any assay.
# key: entry, value: growth
Only the number, expressed in %, is required.

Use these answered entries as a reference point.
* O=C1Nc2ccc(Br)cc2C1=N/C=c1\[nH]c(=O)/c(=C/c2ccc(Cl)cc2)s1 | 80
* Nc1c(C(=O)Nc2cccc(C(F)(F)F)c2)sc2nc3c(cc12)C(O)CCC3 (stereo unspecified) | 17
* CCC1CCc2nc3sc(C(=O)Nc4ccccc4F)c(N)c3cc2C1 (stereo unspecified) | 87.4

Reported growth ( CCCC(C(=O)OCC)C(C)OC(=O)OCC (stereo unspecified) ) = 86.6

Reported growth ( Clc1ccc2c(c1)NC1(CCSc3ccccc31)n1nccc1-2 (stereo unspecified) ) = 101

Reported growth ( Cc1cc(C(=O)O)c(N)c(C)n1 ) = 112

Reported growth ( CCCS(=O)(=O)c1nc(NC2CC2)cc(-c2ccc3c(ccn3C3CC(C)(C)NC(C)(C)C3)c2)n1 ) = -74.3

Reported growth ( O=C(CSc1nc(-c2ccc(Cl)cc2)cn1-c1ccc(Cl)cc1)c1ccc(Br)cc1 ) = 69.6

Reported growth ( CN1CCN(CCCOc2ccc3nc(Nc4ccc(C(F)(F)F)c(Cl)c4)ccc3c2)CC1 ) = 39.9

Reported growth ( O=S(=O)(NCCCNc1nccc(-c2c(-c3ccc(O)cc3)nc3sccn23)n1)c1ccc(F)cc1 ) = -5.79

Reported growth ( COc1cccc(/C=C/C(=O)c2sc(Nc3ccc(O)cc3)nc2C)c1 ) = 90.8

Reported growth ( O=S(=O)(NCCNc1cc(-c2cn(-c3ccccc3)nc2-c2ccccc2)ccn1)c1ccc(F)cc1 ) = 50.5

Reported growth ( Cn1cc(C=O)c2ccccc21 ) = 102

Reported growth ( COc1ccc(NC(=O)c2cc3ccccc3nc2Nc2cc(OC)c(OC)c(OC)c2)cc1 ) = 27.1

Reported growth ( O=C(c1ccccc1)C(Cl)C(Cl)c1ccccc1 (stereo unspecified) ) = -1.59

Reported growth ( Cc1nc2sccn2c1-c1csc(Nc2ccccc2Cl)n1 ) = 41

Reported growth ( CCC(=O)Oc1cc(/C=C/C(=O)O[C@H]2C[C@H]3CN4CCc5c([nH]c6cc(OC)ccc56)[C@@H]4C[C@@H]3[C@@H](C(=O)OC)[C@@H]2OC)ccc1OC ) = 60.6

Reported growth ( CCCCC[C@@H]1Cc2cc(O)c(C(=O)O)c3c2[C@H](C[C@@]2(CCCO2)O3)O1 ) = 108
